# System: HepG2
# Protocol summary: MTT cytotoxicity assay, HepG2
# Format: cell-based, human
# Conditions: Homo sapiens; HepG2, 48 h, MTT
Measurement type: pIC50
Scale for pIC50: -log10 of concentration given in mol/L; no unit attached.

Supply pIC50 measured with HepG2 for COc1cc2c(cc1O)C(=O)c1nccc3cc(OC(C)C)c(OC)c-2c13 [OD] . 5.05
